Task for the reader: assign each of the following compounds its reported melting point.
Structures can show the parent of a compound that is named as a salt.

Observe how each entry below is paired with its result.
compound	reported property	measurement
O=C(CCN1CCCC(C(=O)N2CCc3ccccc3C2)C1)Nc1ccc2c(c1)OCO2 (stereo not shown) (as salt: salt) [Example 18]	melting point	195 to 196 °C
COc1cc2c(cc1OC)CN(C(=O)[C@@H]1CCCN(CCNC(=O)c3ccc(F)cc3)C1)CC2 (as salt: salt) (hydrate or solvate) [Example 49]	melting point	197 to 199 °C
COc1cc2c(cc1OC)CN(C(=O)C1CCCN(CCC(=O)Nc3cccc(Cl)c3)C1)CC2 (stereo not shown) (as salt: HCl) [Example 12]	melting point	181 to 185 °C

// each compound listed below needs its melting point
1. CCOc1ccc(C(=O)NCCN2CCCC(C(=O)N3CCc4cc(OC)c(OC)cc4C3)C2)cc1 (stereo not shown) (as salt: salt) [Example 32]
2. COc1cc(C(=O)NCCN2CCCC(C(=O)N3CCc4cc(OC)c(OC)cc4C3)C2)ccc1C (stereo not shown) (as salt: salt) [Example 28]
3. COc1cc2c(cc1OC)CN(C(=O)C1CCCN(CCNC(=O)c3ccc4c(c3)OCC(=O)N4C)C1)CC2 (stereo not shown) (as salt: salt) [Example 34]
4. COc1cc2c(cc1OC)CN(C(=O)C1CCCN(CCC(=O)Nc3ccc4c(c3)OCO4)C1)CC2 (racemic) (as salt: HCl) [Example 2]
5. COc1cc2c(cc1OC)CN(C(=O)C1CCCN(CCNC(=O)c3ccc(F)cc3)C1)CC2 (stereo not shown) (as salt: salt) [Example 40]

[A]
["125 to 127 °C", "125 to 128 °C", "130 to 138 °C", "226 to 228 °C", "137 to 141 °C"]

----------
Task for the reader: assign each of the following molecules its reported melting point.
Structures can show the parent of a compound that is named as a salt.

// each molecule listed below needs its melting point
1. COc1cc2c(cc1OC)CN(C(=O)C1CCCN(CCNC(=O)c3ccc4c(c3)OCCO4)C1)CC2 (stereo not shown) (as salt: salt)
2. COc1ccc(C(=O)NCCN2CCCC(C(=O)N3CCc4cc(OC)c(OC)cc4C3)C2)cc1F (stereo not shown) (as salt: salt)
3. COc1cc2c(cc1OC)CN(C(=O)C1CCCN(CCNC(=O)c3ccc(F)c(Cl)c3)C1)CC2 (stereo not shown) (as salt: salt)

[A]
126 to 130 °C
113 to 116 °C
111 to 112 °C

// each molecule listed below needs its melting point
1. COc1ccc(NC(=O)CCN2CCCC(C(=O)N3CCc4cc(OC)c(OC)cc4C3)C2)cn1 (stereo not shown) (as salt: salt)
2. COc1cc2c(cc1OC)CN(C(=O)C1=CCCN(CCC(=O)Nc3ccc4c(c3)OCO4)C1)CC2
3. COc1cc2c(cc1OC)CN(C(=O)C1CCCN(CCC(=O)Nc3ccc(OC)c(C(F)(F)F)c3)C1)CC2 (stereo not shown) (as salt: HCl)
4. COc1cc2c(cc1OC)CN(C(=O)[C@H]1CCCN(CCNC(=O)c3ccc(F)cc3)C1)CC2 (as salt: salt) (hydrate or solvate)

[A]
["182 to 185 °C", "159 to 160 °C", "166 to 168 °C", "187 to 191 °C"]

The reported measurements were obtained from patent US6573279B1.
